B1: CPEB3 Ribozyme (parent)
chain: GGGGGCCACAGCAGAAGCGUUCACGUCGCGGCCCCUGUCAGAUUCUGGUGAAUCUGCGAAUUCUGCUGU

- Variants of: B1
- assay: self-cleavage, relative activity (ratio to wild type); higher = more cleavage; co-transcriptional
Outcome: TRUE for self-cleavage of at least 0.5; FALSE for anything lower.

Here are 7 variants together with their reported answers.
                             sequence_entry  answer_label
0  GGGGGCCACAGCAGAAGCGUUCACGUCGCCGCCCCUGUCAGAUUCUGGUCAAUCUGCGAAUUCUGCUGU          TRUE
1  GGGGGCCACAGCAGAAGCGUUCACGUCGCGGCCCCUGUCAGAUUAUGGUGAAGCUGCGAAUUCUGCUGU          TRUE
2  GGGGGCCACAGCCGAAGCGUUCACGUCGCGCCCCCUGUCAGAUUCUGGUGAAUCUGCGAAUUCUGCUGU         FALSE
3  GGGGGCCACAGCAGAAACGUUCACGUCGCGACCCCUGUCAGAUUCUGGUGAAUCUGCGAAUUCUGCUGU         FALSE
4  GGGGGCCACAGCAGAAGCGUUCAGGUCGCGGCCCCUGUCAGAUUCUGGUGAUUCUGCGAAUUCUGCUGU         FALSE
5  GGGGGCCACAGCAGAAGCGUUCACGUCGCGGUCCCUGUCAGAUGCUGGUGAAUCUGCGAAUUCUGCUGU          TRUE
6  GGGGGCCACAGCAGAAGCGUUCACGUCGCGGCCCCUGUCAGAUUCUGGUGAAUCUGCGCAUUUUGCUGU          TRUE

Then there is this variant:
Challenge: Is it the case that "GGGGGCAACAGCAGAAGCGUUCACGUCGCGGCCCCUGUCAUAUUCUGGUGAAUCUGCGAAUUCUGCUGU" has self-cleavage reaching or exceeding 0.5?
Response given: FALSE
